Value source: patent US20240270724A1

- SYSTEM NAME: galectin-3 (Homo sapiens)
- Sequence (P17931 whole entry): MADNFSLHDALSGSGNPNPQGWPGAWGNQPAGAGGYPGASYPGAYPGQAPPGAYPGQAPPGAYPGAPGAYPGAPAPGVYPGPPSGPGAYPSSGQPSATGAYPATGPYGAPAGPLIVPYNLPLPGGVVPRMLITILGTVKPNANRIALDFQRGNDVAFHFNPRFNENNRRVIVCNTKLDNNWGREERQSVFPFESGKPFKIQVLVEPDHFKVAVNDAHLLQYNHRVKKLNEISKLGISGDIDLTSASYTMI
pIC50: −log10 of the molar value.
The entries below come with measured pIC50 values attached.

# COMPOUND, pIC50
rows = [
    ("[2H]C([2H])([2H])OC1C(n2cc(-c3cc(F)c(F)c(F)c3)nn2)[C@@H](O)C(CO)O[C@H]1[C@H](OCc1ccc(Br)cc1)C(=O)NC1(CO)CC1 (stereo partly drawn) [Compound 75]", 6.03),
    ("COCCCNC(=O)[C@@H](OCc1ccc(Br)cc1)[C@@H]1OC(CO)[C@H](O)C(n2cc(-c3cc(F)cc(F)c3)nn2)C1O (stereo partly drawn) [Compound 35]", 6.41),
    ("COC1C(n2cc(-c3cc(F)c(F)c(F)c3)nn2)[C@@H](O)C(CO)O[C@H]1[C@H](OCc1ccc(Br)cc1)C(=O)NC1CC1 (stereo partly drawn) [Compound 49]", 6.94),
]

====

- SYSTEM NAME: galectin-3 (Homo sapiens)
- Construct: purchased IBL IBATGP0414
- ASSAY: Galectin-3 activity ELISA assay: inhibition of galectin-3 binding to immobilized Galβ1-3GlcNAc polymer
- REPORTED CONDITIONS: inhibition of galectin-3 binding to Galβ1-3GlcNAc polymer, average (± standard deviation) where assayed more than once

# MOLECULE, UNIT SPEC, IC50
records = [
    ("COC1C(n2cc(-c3cc(F)c(F)c(F)c3)nn2)[C@@H](O)C(CO)O[C@H]1[C@H](OCc1ccc(Cl)cc1)C(=O)N(C)C (stereo partly drawn) [Compound 83, reference compound]", "nM", 2910),
    ("COC1C(n2cc(-c3cc(F)c(F)c(F)c3)nn2)[C@@H](O)C(CO)O[C@H]1[C@H](OCc1ccc(Cl)cc1)C(=O)NC(C)C (stereo partly drawn) [Compound 89, reference compound]", "nM", 427),
    ("[2H]C([2H])([2H])OC1C(n2cc(-c3cc(F)c(F)c(F)c3)nn2)[C@@H](O)C(CO)O[C@H]1[C@H](OCc1ccc(Br)cc1)C(=O)N(C)C (stereo partly drawn)", "nM", 709),
]

====

- SYSTEM NAME: UniProt P17931
Sorting guide: entries reporting IC50 beneath 200 nM go in the true (1) pile, the rest go in the false (0) pile.

# MOLECULE, CATEGORY
records = [
    ("COCCCNC(=O)[C@@H](OCc1ccc(Br)cc1)[C@@H]1OC(CO)[C@H](O)C(n2cc(-c3cc(F)cc(F)c3)nn2)C1OC (stereo partly drawn)", "false (0)"),
    ("[2H]C([2H])([2H])OC1C(n2cc(-c3cc(F)c(F)c(F)c3)nn2)[C@@H](O)C(CO)O[C@H]1[C@H](OCc1ccc(Cl)cc1)C(=O)NC(C)C (stereo partly drawn) [Compound 88, reference compound]", "false (0)"),
    ("COC1C(n2cc(-c3cc(F)c(F)c(F)c3)nn2)[C@@H](O)C(CO)O[C@H]1[C@H](OCc1ccc(Br)cc1)C(=O)NCCO (stereo partly drawn)", "true (1)"),
    ("CNC(=O)[C@@H](OCc1ccc(Cl)cc1)[C@@H]1OC(CO)[C@H](O)C(n2cc(-c3cc(F)c(F)c(F)c3)nn2)C1OC (stereo partly drawn) [Compound 84, reference compound]", "false (0)"),
    ("CC(C)OC(=O)[C@@H](OCc1ccc(Cl)cc1)[C@@H]1OC(CO)[C@H](O)C(n2cc(-c3cc(F)c(F)c(F)c3)nn2)C1O (stereo partly drawn) [Compound 86, reference compound]", "true (1)"),
    ("COC1C(n2cc(-c3cc(F)c(F)c(F)c3)nn2)[C@@H](O)C(CO)O[C@H]1[C@H](OCc1ccc(Br)cc1)C(=O)O (stereo partly drawn)", "false (0)"),
    ("COCCCNC(=O)[C@@H](OCc1ccc(Cl)cc1)[C@@H]1OC(CO)[C@H](O)C(n2cc(-c3cc(F)c(F)c(F)c3)nn2)C1OC (stereo partly drawn) [Compound 85, reference compound]", "false (0)"),
    ("[2H]C([2H])([2H])OC1C(n2cc(-c3cc(F)c(F)c(F)c3)nn2)[C@@H](O)C(CO)O[C@H]1[C@H](OCc1ccc(Br)cc1)C(=O)NC(C)(C)CO (stereo partly drawn)", "false (0)"),
]
